Exercise: state measured activation for each of the compounds provided.
assay: qHTS assay for small molecule activators of the p53 signaling pathway (AID 651743); settings: HCT-116 p53RE-bla, beta-lactamase FRET ratio, 16 h; stronger effect = higher value; also: % of control where 0% means no effect
Inconclusive results are not listed.
Field: numeric (%). Do not append units.

Which measured activation value corresponds to CC(=O)Nc1ccc(C(=O)O)cc1 ?
-0.0847

# get_value(readout='activation', item= CC1CC(OC(=O)c2ccccc2O)CC(C)(C)C1 (stereo not drawn) )
-6.41

Given the compound OC[C@@H](O)[C@@H](O)[C@H](O)[C@H](O)CO , what is its reported activation?
-0.611

###

test: qHTS Assay for Identifying Gametocytocidal Compounds (AID 743244);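 also: % is scaled to controls: 0 for no effect and ±100 for the full control effect; actives lower the fluorescent signal which means gametocytes are killed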; conditions: P. falciparum 3D7 stage III-V gametocytes, alamarBlue, 72 h; stronger effect = lower value
Records with an inconclusive call do not appear.
Field: max response. Provide a value for each of the compounds that follow.
The response must be a number in % with no trailing unit.

Consider the compound NC(=O)CC[C@@H](N)C(=O)O and give its measured max response.
-2.82

Form field: reported max response of O=C(O)c1ccccc1OP(=O)(O)O
-5.84

Reported max response, compound COc1ccccc1OCC(O)CO (stereo unspecified) : ____
10.4

Dear colleague, I am looking for the recorded max response of the following compound: Cc1cc(O)cc(C)c1Cl
-2.6

What measured max response goes with NS(=O)(=O)c1cc(C2(O)NC(=O)c3ccccc32)ccc1Cl (stereo unspecified) ?
0.268

Look up max response for this compound: O=S1(=O)OC(c2ccc(O)cc2)(c2ccc(O)cc2)c2ccccc21
21.8

# query: max response of entry Cc1c(NC(=O)c2cccnc2)c(=O)n(-c2ccccc2)n1C
-5.32

What does the data say about its max response? Entry: Cc1ccc2c(c1)c1c3n2CCNC3CCC1 (stereo unspecified)
5.73

Query (compound): CC1(C)[C@@H](OC(=O)CCC(=O)O)CC[C@]2(C)[C@H]3C(=O)C=C4[C@@H]5C[C@@](C)(C(=O)O)CC[C@]5(C)CC[C@@]4(C)[C@]3(C)CC[C@@H]12 ; field requested: max response
-6.25

Item under review: O=C(/C=C/c1ccc(O)c(O)c1)O[C@@H]1C[C@@](OC(=O)/C=C/c2ccc(O)c(O)c2)(C(=O)O)C[C@@H](O)[C@@H]1O . Reported max response?
3.41

// max response lookup, key: C[C@@H](N)C(=O)O
-2.49

###

test system: ECU; experiment: qHTS profiling for inhibitors of Plasmodium falciparum proliferation (AID 504749); also: nearly all actives have a fitted effect of over 60% in size; settings: P. falciparum in erythrocytes, SYBR Green DNA, 72 h; series mostly up to 28.7 µM
Records with an inconclusive call do not appear. The source made the active and inactive calls. The call rests on the fitted dose curve; in most records, active means well fitted inhibition curve with a large enough effect; inconclusive means small, poorly fitted or top-dose-only effect; inactive means flat fitted curve, though single readings scatter.
Give your call using only these classes: true = active, false = inactive

Call for entry CCCCC1(COC(=O)CCC(=O)O)C(=O)N(c2ccccc2)N(c2ccccc2)C1=O :
false

Give the logged outcome of this assay for the following molecule: CCOC(N)=O
false

# outcome recorded in this test, key = NS(=O)(=O)c1cc(-c2nn[nH]n2)c(NCc2cccs2)cc1Cl
false

Check the results log: what was the call for Cc1c(Cn2ccnc2)c2ccccc2n1CCC(=O)O ?
false

For this molecule, state the assay outcome: C[C@@H]1O[C@@H](OC[C@H]2O[C@@H](Oc3c(-c4ccc(O)c(O)c4)oc4cc(O)cc(O)c4c3=O)[C@H](O)[C@@H](O)[C@@H]2O)[C@H](O)[C@H](O)[C@H]1O
false

// return assay outcome for OC[C@@H](O)[C@@H](O)[C@H](O)[C@H](O)CO
false

What was the test verdict on O=C(O)c1ccc[n+]([O-])c1 ?
false

What outcome does the record of this test show for O=C(O)CCC(=O)O ?
false

Would you mind telling me which call this test gave C[N+](C)(C)CC[N+]1(C)Cc2c(Cl)c(Cl)c(Cl)c(Cl)c2C1 ?
false

How was CCCCCCCCCCOc1cc2c(=O)c(C(=O)OCC)c[nH]c2cc1OCC classified in this test?
true

What outcome does the record of this test show for O=c1[nH]c(=O)c2ccccc2o1 ?
false
